All values here come from PubChem BioAssay (NCI).

tested on: TK-10 renal; assay: NCI tumour cell line growth inhibition, 48 h
Attribute: TGI
Quick reminder: number only, in µM, skip the unit.

COc1ccccc1/C=C1\SC(=S)N(/C=C2\C(=O)Oc3ccccc3C2=O)C1=O
95.9
COC(=O)[C@@H](C)CNS(=O)(=O)N(c1cc(C(F)(F)F)cc(C(F)(F)F)c1)C1CCN(Cc2ccc(F)cc2)CC1
32.7
COc1cc2nc3cc([N+](=O)[O-])ccc3c(NCCCNCCO)c2cc1OC
0.923
CN1C/C=C\CCOc2cccc(c2)-c2ccnc(n2)Nc2cccc(c2)C1
0.88

Tell us which TGI value is on record for O=C1C=CC[C@H]2O[C@@H](COC(=O)Cc3ccccc3)C[C@H]2O1 65.5

Tell us which TGI value is on record for COC(=O)[C@H](C)NC(=O)NC(=O)NC(=O)CI 30.6

Tell us which TGI value is on record for CCOC(=O)c1cc(C(O)P2(=O)N(CC(C)(C)C)[C@@H]3CCCC[C@H]3N2CC(C)(C)C)cn1C(=O)OC(C)(C)C (stereo not given in full) 57.3

###

test system: SF-539 CNS; experiment: NCI tumour cell line growth inhibition, 48 h; in the data active = GI50 below about 0.43 µM; inactive = the rest
Allowed answers: class 1 for active, class 0 for inactive

NS(=O)(=O)c1ccc(N=Nc2c(O)[nH]c3ccc(-c4cnco4)cc23)cc1
class 0

Just curious, what result did CN(C)C(=O)c1cc2cnc(Nc3ccc(-c4csc5c(=S)cc(N6CCOCC6)oc45)cc3)nc2n1C1CCCC1 get here? class 0

Just curious, what result did COc1cc2nc3cc([N+](=O)[O-])ccc3c(NCCCNCCO)c2cc1OC get here? class 1

Just curious, what result did COC1=CC(=O)c2nc(-c3cccc(C)n3)[nH]c2C1=O get here? class 0

###

Attribute: TGI
tested on: M19-MEL melanoma; test: NCI tumour cell line growth inhibition, 48 h

Below, each entry is followed by its recorded TGI result.
COC1(OC)C2(Cl)C(Cl)=C(Cl)C1(Cl)C1C=CC=CC12 (stereo unspecified)
> 100 µM
CCC[CH2][Sn]1([CH2]CCC)[O]CC(CN2CCCC2)[O]1 (stereo unspecified)
29.4 µM
COc1ccc(C(=O)C(C(=O)CCC(=O)Nc2cccc(Cl)c2)c2ccc(OC)cc2)cc1 (stereo unspecified)
> 100 µM
O=C(Cc1ccccc1)NN1C(=O)C(Cl)C1c1cc(Br)ccc1O (stereo unspecified)
23.3 µM
O=C1CCN2C(=O)CCN12
> 100 µM

Tell us which TGI value is on record for Cc1cn(C2CC(O)C(CO)O2)c(=O)n2nnnc12 (stereo unspecified) > 100 µM

###

tested on: MCF7 breast; experiment: NCI tumour cell line growth inhibition, 48 h
Endpoint: TGI

Below, each entry is followed by its recorded TGI result.
O=C1OC(C(O)CO)C(=O)C1=O (stereo not drawn)
5860 µM
OCC(O)COCn1nncc1Cn1ncc2c(SCc3ccccc3)ncnc21 (stereo not drawn)
> 100 µM
O=C1/C(=C/c2ccc([N+](=O)[O-])cc2)C(=O)N(c2ccccc2)C1c1ccccc1 (stereo not drawn)
> 10 µM
Cc1ccc2c(c1)C(C(=O)N[C@@H]1C(=O)N3[C@@H]1SC(C)(C)[C@@H]3C(=O)O)OCCC2 (stereo partly drawn)
> 100 µM
COC(CNC(=O)C(C)NC(=O)CCc1ccccc1)OC (stereo not drawn)
> 100 µM
c1ccc2c(c1)ccn2CCc1c[nH]c2ccccc12
> 10 µM

Tell us which TGI value is on record for CC1OC(OC2C(O[C@H]3CC[C@@]4(C)C(=CC[C@H]5[C@@H]6C[C@@H]7O[C@]8(CC[C@@H](CO)CO8)[C@@H](C)[C@@H]7[C@@]6(C)CC[C@@H]54)C3)OC(CO)C(O)C2OC2OC(CO)C(O)C(O)C2O)C(O)C(O)C1O (stereo partly drawn) 3.15 µM

Tell us which TGI value is on record for O=C1C(CN2CCCCC2)CCC1CN1CCCCC1 (stereo not drawn) 43 µM

Tell us which TGI value is on record for CON(C)C(=O)CNC(=O)OCC1c2ccccc2-c2ccccc21 > 100 µM

###

tested on: A549 NSCLC; test: NCI tumour cell line growth inhibition, 48 h
Endpoint: TGI

Tell us which TGI value is on record for COc1cccc(-c2ccc3c4c2O[C@H]2C(=O)CC[C@@]5(O)[C@@H](C3)N(CC3CC3)CC[C@]425)c1 35.5 µM

Tell us which TGI value is on record for Cc1cccc(NC(=O)/C(=N\NC(C)(C)C)C2NC(=S)NC2=O)c1C (centres undefined) > 100 µM

Tell us which TGI value is on record for CN1CCC(O)(C(C)(C)C)CC1 > 100 µM

Tell us which TGI value is on record for Cc1ccc(C2=C(c3ccccc3)C(Br)(c3ccc(C)cc3)C(c3ccccc3)=C2c2ccc(C)cc2)cc1 > 100 µM

Tell us which TGI value is on record for Cc1cc(C(=O)Nc2ncc(Cc3cccc(C(F)(F)F)c3)s2)c2ccccc2n1 > 100 µM

Tell us which TGI value is on record for COc1cc2c3c(n(CCCNC(=O)OCC4c5ccccc5-c5ccccc54)c(=O)c2cc1OC)-c1cc2c(cc1/C3=C\CCNC(=O)OCC1c3ccccc3-c3ccccc31)OCO2 > 50 µM

Tell us which TGI value is on record for C[C@@H]1CC(=O)C2CCCC1C2=O (some centres undefined) > 100 µM

Tell us which TGI value is on record for Cc1ccc([N+](=O)[O-])cc1S(=O)(=O)Nc1ccc(C2=NNC(c3ccccc3)C2)cc1 (centres undefined) > 100 µM

Tell us which TGI value is on record for CC(=O)/C(C)=N/NC(=O)c1ccccc1O > 100 µM

###

Attribute: TGI
test system: SF-268 CNS; assay: NCI tumour cell line growth inhibition, 48 h

Below, each entry is followed by its recorded TGI result.
CC(=O)OCC12C(=O)C[C@@H](C)C3(CC(c4ccoc4)OC3=O)C1CCC(OC(C)=O)C21CO1 (some centres undefined)
> 100 µM
c1cc(CNC23CC4CC(CC(C4)C2)C3)cc(C[N+](Cc2cccc(CNC34CC5CC(CC(C5)C3)C4)c2)(Cc2cccc(CNC34CC5CC(CC(C5)C3)C4)c2)Cc2cccc(CNC34CC5CC(CC(C5)C3)C4)c2)c1 (centres undefined)
22.6 µM
CCOC(=O)N/N=C(/N)c1cccc([N+](=O)[O-])c1
> 100 µM

Tell us which TGI value is on record for COC(=O)/C(=N\Nc1nnc(C)n1N)C(C#N)c1ccc(Cl)cc1 (centres undefined) > 100 µM

Tell us which TGI value is on record for COc1cc(/C=C(\C#N)C(N)=O)cc(Br)c1O > 100 µM

Tell us which TGI value is on record for O=C(N/N=C/c1ccccc1)c1c(-c2cccnc2)cnc2ccccc12 > 100 µM

Tell us which TGI value is on record for O=C1CCN2C(=O)CCN12 > 100 µM

Tell us which TGI value is on record for Cc1cccc(N2CCN(C(=S)c3ccc4c(c3)OCO4)CC2)c1 > 100 µM

Tell us which TGI value is on record for N=C1C(c2nc3ccccc3s2)=C(O)CN1c1cc(C(F)(F)F)ccc1Cl > 100 µM

Tell us which TGI value is on record for CC1CC[C@]2(C(=O)O)CCC3(C)C(=CC(=O)C4[C@@]5(C)CCC(=O)C(C)(C)C5CC[C@]43C)[C@@H]2[C@H]1C (some centres undefined) > 100 µM

###

system: IGROV1 ovarian; assay: NCI tumour cell line growth inhibition, 48 h
Endpoint: GI50

Below, each entry is followed by its recorded GI50 result.
CN1CCN(CCCOc2ccc3nc(Nc4ccc(Cl)c(C(F)(F)F)c4)ccc3c2)CC1
13.2 µM
NS(=O)(=O)c1ccc(N=Nc2c(O)[nH]c3ccc(-c4cnco4)cc23)cc1
> 25 µM

Consider the record given below.
Tell us which GI50 value is on record for CCCCC(O)(c1ccc(Cl)cc1)C(CN1CCOCC1)c1ccc(Cl)cc1 (stereo not drawn) 8.68 µM

###

system: 786-0 renal; assay: NCI tumour cell line growth inhibition, 48 h
Attribute: TGI

Cc1ccc(SCC(CF)OC(C)n2cnc3c(=O)[nH]c(N)nc32)cc1 (stereo unspecified)
> 100 µM
CCOC(=O)CNc1c(OCc2ccccc2)c(=O)c1=O
> 100 µM
CC(C)C(Nc1c2ccccc2nc2ccccc12)C(=O)O (stereo unspecified)
> 100 µM
COc1ccc2ccccc2c1/C=C/C(=O)c1ccccc1
11.9 µM
COc1cc2c3c(n(CCCNC(=O)OCC4c5ccccc5-c5ccccc54)c(=O)c2cc1OC)-c1cc2c(cc1/C3=C\CCNC(=O)OCC1c3ccccc3-c3ccccc31)OCO2
> 29.8 µM
CCOC(=O)c1c(C)n(Cc2ccc(Cl)cc2Cl)c2c1c(CN(C)C)c(O)c1[nH]cnc12
41.4 µM

Tell us which TGI value is on record for Cc1ccc(/C=C2\CCCc3ccccc3C2=O)cc1 > 100 µM

Tell us which TGI value is on record for Cc1cc(S(=O)(=O)Nc2nnc(-c3ccccc3)c(-c3ccccc3)n2)c(SCC(N)=O)cc1Cl > 100 µM

Tell us which TGI value is on record for CC(C)(C)c1cc(C(C)(C)C)cc(S(=O)(=O)Nc2cc3ccccc3cc2C(=O)NCCN)c1 3.09 µM

Tell us which TGI value is on record for Cc1c(S(=O)(=O)/N=C(\NO)Nc2ccc(Cl)c(Cl)c2)sc2ccc(Cl)cc12 39.6 µM
